Value source: ChEMBL document CHEMBL2424622

molecular target: Tyrosine-protein kinase Fyn (Homo sapiens); assay: Competitive binding affinity to FYN (unknown origin) at 10 uM in presence of ATP relative to control
Property label: inhibition (%)

- Chemical smiles: "O=C([C@H]1CC[C@H](Nc2nccc(-n3nnc4ccccc43)n2)CC1)N1CCOCC1"
  inhibition [%]: 81
- Chemical smiles: "O[C@H]1CC[C@H](Nc2nccc(-c3n[nH]c4ccccc34)n2)CC1"
  inhibition [%]: 77
- Chemical smiles: "N[C@H]1CC[C@H](Nc2nccc(-n3nnc4ccccc43)n2)CC1"
  inhibition [%]: 80

* * *

target: BMP-2-inducible protein kinase (Homo sapiens); test: Competitive binding affinity to BIKE (unknown origin) at 10 uM in presence of ATP relative to control
Property label: inhibition (%)

- Chemical smiles: "O[C@H]1CC[C@H](Nc2nccc(-c3n[nH]c4ccccc34)n2)CC1"
  inhibition (%): 99
- Chemical smiles: "O=C([C@H]1CC[C@H](Nc2nccc(-n3nnc4ccccc43)n2)CC1)N1CCOCC1"
  inhibition (%): 87
- Chemical smiles: "N[C@H]1CC[C@H](Nc2nccc(-n3nnc4ccccc43)n2)CC1"
  inhibition (%): 99
- Chemical smiles: "O[C@H]1CC[C@H](Nc2nccc(-n3nnc4ccccc43)n2)CC1"
  inhibition (%): 86
- Chemical smiles: "O[C@H]1CC[C@H](Nc2nccc(-n3ncc4ccccc43)n2)CC1"
  inhibition (%): 81

* * *

Measured inhibition by item
system: Tyrosine-protein kinase ABL1 (Homo sapiens), P00519 [Q252H]; test: Competitive binding affinity to ABL1 Q252H mutant (unknown origin) at 10 uM in presence of ATP relative to control

Example entries and their recorded answers appear below.
- Chemical smiles: "O[C@H]1CC[C@H](Nc2nccc(-n3ccc4ccccc43)n2)CC1"
  Observed: "< 50%"
- Chemical smiles: "O[C@H]1CC[C@H](Nc2nccc(-n3nnc4ccccc43)n2)CC1"
  Observed: "74%"
- Chemical smiles: "O[C@H]1CC[C@H](Nc2nccc(-n3ncc4ccccc43)n2)CC1"
  Observed: "< 50%"

Moving on to another molecule below.
Fill blank: measured inhibition of the molecule O[C@H]1CC[C@H](Nc2nccc(-c3n[nH]c4ccccc34)n2)CC1 is ____.
< 50%

* * *

Measured inhibition by item
tested on: Epidermal growth factor receptor (Homo sapiens), P00533 [G719S]; assay: Competitive binding affinity to EGFR G719S mutant (unknown origin) at 10 uM in presence of ATP relative to control
Sequence (P00533 whole entry G719S): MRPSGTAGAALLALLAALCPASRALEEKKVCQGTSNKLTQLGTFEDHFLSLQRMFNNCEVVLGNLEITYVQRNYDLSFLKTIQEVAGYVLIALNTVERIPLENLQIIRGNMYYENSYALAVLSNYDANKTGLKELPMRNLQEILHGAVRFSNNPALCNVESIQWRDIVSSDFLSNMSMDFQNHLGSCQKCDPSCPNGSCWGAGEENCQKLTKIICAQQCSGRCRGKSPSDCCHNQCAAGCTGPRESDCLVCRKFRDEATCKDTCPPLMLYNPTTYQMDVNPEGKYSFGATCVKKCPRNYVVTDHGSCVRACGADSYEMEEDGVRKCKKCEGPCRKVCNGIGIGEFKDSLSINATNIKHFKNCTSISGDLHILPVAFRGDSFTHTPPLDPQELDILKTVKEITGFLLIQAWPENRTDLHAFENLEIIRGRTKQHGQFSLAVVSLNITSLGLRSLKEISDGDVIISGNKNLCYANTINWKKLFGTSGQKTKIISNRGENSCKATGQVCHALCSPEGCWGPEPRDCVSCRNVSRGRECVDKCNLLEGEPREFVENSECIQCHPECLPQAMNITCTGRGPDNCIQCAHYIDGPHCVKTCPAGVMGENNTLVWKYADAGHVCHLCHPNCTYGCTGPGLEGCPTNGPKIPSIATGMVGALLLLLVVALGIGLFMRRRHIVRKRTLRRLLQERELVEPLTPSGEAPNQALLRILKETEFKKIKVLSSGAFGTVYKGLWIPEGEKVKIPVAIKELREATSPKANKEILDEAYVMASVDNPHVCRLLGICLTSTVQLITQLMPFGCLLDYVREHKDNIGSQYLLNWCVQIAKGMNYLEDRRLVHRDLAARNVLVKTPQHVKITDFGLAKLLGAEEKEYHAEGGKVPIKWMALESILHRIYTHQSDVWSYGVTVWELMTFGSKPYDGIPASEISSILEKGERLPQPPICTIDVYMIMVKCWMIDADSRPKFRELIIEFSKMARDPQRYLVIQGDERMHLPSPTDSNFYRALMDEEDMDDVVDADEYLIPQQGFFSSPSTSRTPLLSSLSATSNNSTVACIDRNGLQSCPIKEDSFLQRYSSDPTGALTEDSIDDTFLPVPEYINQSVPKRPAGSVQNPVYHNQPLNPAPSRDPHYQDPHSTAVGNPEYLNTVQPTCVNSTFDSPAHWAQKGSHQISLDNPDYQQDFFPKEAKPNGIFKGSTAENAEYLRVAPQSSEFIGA

Example entries and their recorded answers appear below.
- Chemical smiles: "O[C@H]1CC[C@H](Nc2nccc(-c3n[nH]c4ccccc34)n2)CC1"
  inhibition: "< 50%"
- Chemical smiles: "O[C@H]1CC[C@H](Nc2nccc(-n3ncc4ccccc43)n2)CC1"
  inhibition: "< 50%"
- Chemical smiles: "O[C@H]1CC[C@H](Nc2nccc(-n3nnc4ccccc43)n2)CC1"
  inhibition: "< 50%"

Moving on to another molecule below.
GET /values?readout=inhibition&system=Epidermal growth factor receptor (Homo sapiens), P00533 [G719S]&item= O[C@H]1CC[C@H](Nc2nccc(-n3ccc4ccccc43)n2)CC1
< 50%

* * *

biological target: Calcium/calmodulin-dependent protein kinase type II subunit beta (Homo sapiens) (UniProt Q13554); experiment: Competitive binding affinity to CAMK2B (unknown origin) at 10 uM in presence of ATP relative to control
Sequence (Q13554 whole entry): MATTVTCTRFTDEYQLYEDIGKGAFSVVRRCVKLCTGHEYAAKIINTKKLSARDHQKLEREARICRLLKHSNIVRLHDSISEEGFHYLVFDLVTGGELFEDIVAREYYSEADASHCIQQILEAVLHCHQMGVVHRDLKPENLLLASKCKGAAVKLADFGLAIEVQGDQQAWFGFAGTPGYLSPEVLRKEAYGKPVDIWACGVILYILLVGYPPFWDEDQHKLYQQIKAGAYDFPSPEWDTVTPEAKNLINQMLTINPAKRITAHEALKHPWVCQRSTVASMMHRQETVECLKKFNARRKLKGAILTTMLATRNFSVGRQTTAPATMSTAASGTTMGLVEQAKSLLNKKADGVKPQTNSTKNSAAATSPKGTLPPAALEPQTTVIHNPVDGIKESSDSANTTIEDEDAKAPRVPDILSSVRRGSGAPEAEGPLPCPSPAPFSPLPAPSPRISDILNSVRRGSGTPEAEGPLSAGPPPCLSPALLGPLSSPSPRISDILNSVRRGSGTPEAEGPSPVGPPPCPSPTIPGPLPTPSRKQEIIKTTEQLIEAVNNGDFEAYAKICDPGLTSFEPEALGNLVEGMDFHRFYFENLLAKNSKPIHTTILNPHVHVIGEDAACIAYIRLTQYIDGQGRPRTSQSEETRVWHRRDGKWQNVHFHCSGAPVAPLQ
Property label: inhibition (%)

- Chemical smiles: "O[C@H]1CC[C@H](Nc2nccc(-n3nnc4ccccc43)n2)CC1"
  inhibition, %: 67
- Chemical smiles: "O[C@H]1CC[C@H](Nc2nccc(-n3ccc4ccccc43)n2)CC1"
  inhibition, %: 80
- Chemical smiles: "O[C@H]1CC[C@H](Nc2nccc(-c3n[nH]c4ccccc34)n2)CC1"
  inhibition, %: 88
- Chemical smiles: "O[C@H]1CC[C@H](Nc2nccc(-n3ncc4ccccc43)n2)CC1"
  inhibition, %: 87
